# Assayed System: T1, Secreted Protein, Acidic, Rich in Cysteines (SPARC) (UniProt P09486 18-303)
# T1 construct: also called osteonectin; SPARC protein
# T1 sequence (looked up): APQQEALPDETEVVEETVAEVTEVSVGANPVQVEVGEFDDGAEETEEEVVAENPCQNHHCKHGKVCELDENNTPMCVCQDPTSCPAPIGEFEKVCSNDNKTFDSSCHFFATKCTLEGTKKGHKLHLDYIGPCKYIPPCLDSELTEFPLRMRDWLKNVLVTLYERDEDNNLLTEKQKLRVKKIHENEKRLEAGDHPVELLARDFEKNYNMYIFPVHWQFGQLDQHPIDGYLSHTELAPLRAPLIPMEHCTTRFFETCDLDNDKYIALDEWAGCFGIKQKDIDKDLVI
# Run Description: phage ELISA on SPARC-coated wells; OD column 3 of 3
Readout Kind: OD
Lab note: record the figure alone, no unit after it.

Sure, the documented OD for YTRLHHWIPPQR (12-mer from the Ph.D.-12 phage library; The peptide was cloned into pFUSE-hIgG1-Fc2 and expressed as the PD 15-Fc fusion; also called peptide 15; PD 15-Fc) [PD 15] is 0.576

Sure, the documented OD for VPATRVSPTPYA (also called clone 133) is 0.5

Sure, the documented OD for TSYLNSGMIPAR (also called clone 63) is 0.602

Sure, the documented OD for TTHSELSGYVEL (also called clone 188) is 0.685

Sure, the documented OD for QILGYPTNLGPF (also called clone 135) is 0.66

Sure, the documented OD for VSHPPRFPGWPQ (also called clone 59) is 0.733

Sure, the documented OD for IDKPLHVVLALG (also called clone 184) is 0.554

Sure, the documented OD for KAYLDSIPITPR (also called clone 60) is 0.605
